Entries and their EC50 (read off the curve) values follow.
# SYSTEM_UNDER_TEST: T1, human CD16A-158F expressed on CHO-K1 cells (human, UniProt P08637 17-254)
# T1 construct: whole, on cells
# PROTOCOL_DESCRIPTION: flow cytometry, CHO-K1-hCD16A-158F cells, geometric mean

EC50 (read off the curve) in this record for 45H6E8-z19 (antibody, human IgG1, V domains shown, Human IgG1 LALAPG constant region; also called HU-VH1-6 / HU-VL1-3) VH: QVQLVQSGAEVKKPGASVKVSCKVSGYTLTDYYMQWVRQAPGKGLEWIGWIDPENGDTEYAPKFQGRVTMTADTSTDTAYMELSSLRSEDTAVYYCTTGGNYVDWGQGTTVTVSS VL: DIQMTQSPSFLSASVGDRVTITCKASQNVGTAVAWYQQKPGKAPKLLIYSASNRYTGVPDRFSGSGSGTDFTLTISSLQPEDFATYFCQQYSSYPLLTFGQGTRLEIK : ~0.4 nM

Continuing:
Measured EC50 (read off the curve), 45H6E8-z21 (antibody, human IgG1, V domains shown, Human IgG1 LALAPG constant region; also called HU-VH1-8 / HU-VL1-3) VH: QVQLVQSGAEVKKPGASVKVSCKVSGYTLTDYYMQWVRQAPGKGLEWMGWIDPENGDTEYAPKFQGRVTMTADTSTDTAYMELSSLRSEDTAVYYCTTGGNYVDWGQGTTVTVSS VL: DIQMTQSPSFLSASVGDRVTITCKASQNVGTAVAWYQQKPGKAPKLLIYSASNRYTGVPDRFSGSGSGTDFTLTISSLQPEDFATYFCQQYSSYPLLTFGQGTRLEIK : ~0.4 nM
